Biological target: TNKS2 (Homo sapiens, UniProt Q9H2K2)
Sequence (Q9H2K2 1-1166): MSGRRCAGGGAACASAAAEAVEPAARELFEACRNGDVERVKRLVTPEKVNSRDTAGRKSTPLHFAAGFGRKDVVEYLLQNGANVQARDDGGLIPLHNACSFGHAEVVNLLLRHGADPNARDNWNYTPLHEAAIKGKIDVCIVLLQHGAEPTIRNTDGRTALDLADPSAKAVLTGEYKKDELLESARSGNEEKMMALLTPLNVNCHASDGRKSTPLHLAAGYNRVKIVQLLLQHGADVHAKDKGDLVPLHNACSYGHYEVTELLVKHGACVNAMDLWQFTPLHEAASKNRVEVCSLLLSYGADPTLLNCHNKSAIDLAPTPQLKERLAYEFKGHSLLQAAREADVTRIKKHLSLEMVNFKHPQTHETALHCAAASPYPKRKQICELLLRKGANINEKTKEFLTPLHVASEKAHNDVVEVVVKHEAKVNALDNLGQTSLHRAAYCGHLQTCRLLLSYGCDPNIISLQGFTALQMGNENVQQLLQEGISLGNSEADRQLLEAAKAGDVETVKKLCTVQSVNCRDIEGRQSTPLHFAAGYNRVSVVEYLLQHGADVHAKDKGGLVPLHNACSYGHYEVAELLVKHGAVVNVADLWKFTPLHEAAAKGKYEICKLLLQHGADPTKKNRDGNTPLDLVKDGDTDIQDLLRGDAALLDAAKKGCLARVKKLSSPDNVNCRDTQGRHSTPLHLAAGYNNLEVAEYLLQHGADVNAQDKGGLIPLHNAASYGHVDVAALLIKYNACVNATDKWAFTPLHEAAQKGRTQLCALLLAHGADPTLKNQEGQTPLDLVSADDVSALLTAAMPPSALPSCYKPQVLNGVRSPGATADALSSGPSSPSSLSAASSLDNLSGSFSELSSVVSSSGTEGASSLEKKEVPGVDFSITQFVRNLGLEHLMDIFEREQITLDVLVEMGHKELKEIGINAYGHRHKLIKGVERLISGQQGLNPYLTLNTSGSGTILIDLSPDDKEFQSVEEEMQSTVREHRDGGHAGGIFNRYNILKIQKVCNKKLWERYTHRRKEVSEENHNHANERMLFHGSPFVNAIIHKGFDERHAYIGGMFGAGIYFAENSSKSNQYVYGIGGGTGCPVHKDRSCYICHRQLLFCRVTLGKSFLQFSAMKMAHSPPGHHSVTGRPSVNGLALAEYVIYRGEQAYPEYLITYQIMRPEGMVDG
Test: Modified TNKS2 Assay 3 (BPS kit #80578, biotin-NAD+, 96 well)
Format: biochemical
Conditions: human TNKS2, BPS kit #80578, 96 well
Protocol: The potency of the compounds against human TNKS2 according to the invention was assessed using a commercially available biotin/streptavidin binding assay kits from BPS Bioscience, San Diego, USA (Catalog #80578 for TNKS2). The incorporation of a biotin-labeled NAD+ during the […] catalyzed ribosylation of a suitable protein substrate was detected using with a streptavidin-HRP coupled chemi-luminescent readout. The intensity of the readout signal is proportional to the incorporated NAD^+. […]
Classes based on IC50: low range: < 0.01 µM; mid range: ≥ 0.01 µM and < 0.1 µM; high range: ≥ 0.1 µM

These solved cases illustrate the format of a correct answer.
Task: Class label required: O=C(Nc1ccc(NC(=O)c2nc[nH]c2C(=O)NCC(F)F)cc1)c1ccc(F)cc1Cl [Example 139]
Output: high range

Task: Assign a category based on measured IC50 for CC(C)NCCNC(=O)c1[nH]cnc1C(=O)Nc1ccc(NC(=O)c2ccc(F)cc2Cl)cc1 [Example 288] and give only the class name.
Output: low range

Task: Band assignment needed for O=C(Nc1ccc(NC(=O)c2nc[nH]c2C(=O)NCCO)cc1)c1ccc(F)cc1Cl [Example 132] please.
Output: high range

Task: Band assignment needed for O=C(Nc1ccc(NC(=O)c2[nH]cnc2C(=O)NCC(F)(F)F)cc1)c1ccc(F)cc1Cl [Example 30] please.
Output: high range

Task: For the record O=C(Nc1ccc(NC(=O)c2nc[nH]c2C(=O)NCCN2CC[C@H](F)C2)cc1)c1ccc(F)cc1Cl [Example 232] , report the class its IC50 corresponds to.
Output: mid range

Task: Kindly identify the class of CNC(=O)c1nc[nH]c1C(=O)Nc1ccc(NC(=O)c2ccc(OC)cc2Cl)cc1 [Example 246] .
Output: mid range

Task: Textbook exercise: identify the category of the compound given here, CNC(=O)c1nc[nH]c1C(=O)Nc1ccc(NC(=O)c2ccc(F)cc2Cl)cc1 [Example 12] , according to its measured value.
Output: mid range

Task: Which bin, given its IC50, does CNC(=O)c1nc[nH]c1C(=O)Nc1ccc(NC(=O)c2ccc(F)cc2Cl)c(F)c1 [Example 72] occupy?
Output: mid range

Further cases:
Task: Which IC50 category applies to O=C(Nc1ccc(NC(=O)c2nc[nH]c2C(=O)NCCCN2CCCC2)cc1)c1ccc(F)cc1Cl [Example 274] here?
Output: low range

Task: # bin lookup: classify O=C(Nc1ccc(NC(=O)c2ocnc2C(=O)NCCN2CC[C@@H](F)C2)cc1)c1ccc(F)cc1Cl [Example 222] by its IC50
Output: high range

Task: Determine which band this compound sits in: O=C(Nc1ccc(NC(=O)c2ocnc2C(=O)NCCN2CC[C@H](F)C2)cc1)c1ccc(F)cc1Cl [Example 221]
Output: high range

Task: Band assignment needed for CC1CCCCN1CCNC(=O)c1[nH]cnc1C(=O)Nc1ccc(NC(=O)c2ccccc2Cl)cc1 (stereo not shown) [Example 153] please.
Output: low range

###

Biological target: TNKS1 (Homo sapiens)
Sequence (O95271 1-1327): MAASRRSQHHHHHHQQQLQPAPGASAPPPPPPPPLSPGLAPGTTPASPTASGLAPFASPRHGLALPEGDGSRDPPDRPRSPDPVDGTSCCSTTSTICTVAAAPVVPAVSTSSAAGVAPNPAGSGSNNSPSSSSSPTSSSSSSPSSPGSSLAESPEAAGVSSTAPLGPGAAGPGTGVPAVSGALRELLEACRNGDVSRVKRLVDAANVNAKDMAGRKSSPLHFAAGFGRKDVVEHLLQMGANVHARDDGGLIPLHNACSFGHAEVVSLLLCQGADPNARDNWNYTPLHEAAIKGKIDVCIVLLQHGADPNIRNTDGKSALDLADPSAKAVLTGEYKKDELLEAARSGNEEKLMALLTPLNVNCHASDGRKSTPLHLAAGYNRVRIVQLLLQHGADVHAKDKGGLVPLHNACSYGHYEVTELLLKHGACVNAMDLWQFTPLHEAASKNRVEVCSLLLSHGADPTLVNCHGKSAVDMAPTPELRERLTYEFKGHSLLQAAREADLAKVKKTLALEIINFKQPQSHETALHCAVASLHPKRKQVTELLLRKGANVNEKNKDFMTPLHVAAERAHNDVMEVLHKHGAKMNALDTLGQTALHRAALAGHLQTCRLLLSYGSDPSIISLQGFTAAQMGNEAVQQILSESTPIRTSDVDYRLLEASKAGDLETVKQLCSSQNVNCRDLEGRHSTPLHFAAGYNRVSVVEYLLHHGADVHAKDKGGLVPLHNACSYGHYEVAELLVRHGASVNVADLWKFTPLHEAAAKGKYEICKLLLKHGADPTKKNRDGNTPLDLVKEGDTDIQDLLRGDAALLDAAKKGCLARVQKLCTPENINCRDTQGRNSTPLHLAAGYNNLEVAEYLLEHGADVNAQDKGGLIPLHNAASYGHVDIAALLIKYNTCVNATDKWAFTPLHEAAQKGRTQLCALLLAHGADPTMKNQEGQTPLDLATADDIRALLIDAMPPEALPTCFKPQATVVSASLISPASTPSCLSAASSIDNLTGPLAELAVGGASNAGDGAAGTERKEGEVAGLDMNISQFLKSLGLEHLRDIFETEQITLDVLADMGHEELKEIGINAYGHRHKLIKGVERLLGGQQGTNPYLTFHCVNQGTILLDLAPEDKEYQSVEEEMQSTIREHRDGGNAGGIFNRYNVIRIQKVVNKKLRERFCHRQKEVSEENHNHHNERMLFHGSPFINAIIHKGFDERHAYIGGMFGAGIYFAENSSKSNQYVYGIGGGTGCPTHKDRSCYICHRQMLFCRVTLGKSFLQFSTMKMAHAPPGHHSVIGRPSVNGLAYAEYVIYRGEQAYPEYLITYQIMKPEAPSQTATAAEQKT
Assay: Modified TNKS1 Assay 3 (BPS kit #80573, biotin-NAD+, 96 well)
Assay type: biochemical
Details: human TNKS1, BPS kit #80573, 96 well
Experimental: The potency of the compounds against human TNKS1 according to the invention was assessed using a commercially available biotin/streptavidin binding assay kits from BPS Bioscience, San Diego, USA (Catalog #80573 for TNKS1). The incorporation of a biotin-labeled NAD+ during the […] catalyzed ribosylation of a suitable protein substrate was detected using with a streptavidin-HRP coupled chemi-luminescent readout. The intensity of the readout signal is proportional to the incorporated NAD^+. […]
Structures can show the parent of a compound that is named as a salt.
REPORTED METRIC: IC50

Task: Report IC50 for CC(C)(N)CCNC(=O)c1[nH]cnc1C(=O)Nc1ccc(NC(=O)c2ccccc2Cl)cc1 [Example 283, hydrochloride salt] tested on TNKS1 (Homo sapiens).
Output: 110 nM

Task: Find IC50 (TNKS1 (Homo sapiens)) for the entry O=C(Nc1ccc(NC(=O)c2[nH]cnc2C(=O)NCCN2CCCCC2)cc1)c1cc(OC(F)(F)F)ccc1Br
Output: 70 nM

Task: Look up IC50 with TNKS1 (Homo sapiens) for this compound: CC(CN1CCOCC1)NC(=O)c1[nH]cnc1C(=O)Nc1ccc(NC(=O)c2ccc(F)cc2)cc1 (single isomer, unassigned; enantiomer 2) [Example 296]
Output: > 500 nM

Task: # returns recorded IC50 (system: TNKS1 (Homo sapiens)) for CN1CCCCC1CNC(=O)c1nc[nH]c1C(=O)Nc1ccc(NC(=O)c2ccc(F)cc2Cl)cc1 (stereo not shown)
Output: 90 nM

---
Task: Request body: readout IC50, system TNKS1 (Homo sapiens), query O=C(Nc1ccc(NC(=O)c2[nH]cnc2C(=O)NCCN2CCCCC2)cn1)c1ccc(F)cc1Cl . Return the value.
Output: 40 nM

Task: Recall the recorded IC50 for CCN1CCC[C@H]1CNC(=O)c1nc[nH]c1C(=O)Nc1ccc(NC(=O)c2ccc(F)cc2Cl)cc1 with TNKS1 (Homo sapiens) and state it.
Output: 1 nM

Task: Find the measured IC50: item CCc1nc(C(=O)Nc2ccc(NC(=O)c3ccc(F)cc3Cl)cc2)c(C(=O)NCCN(C)C)[nH]1 , target or system TNKS1 (Homo sapiens).
Output: 50 nM
